- assay notes: Quantitative High-Throughput drug screen in 47 multiple myeloma cell lines against the NCATS MIPE library collection: OCIMY1_PLB cell viability assay (AID 1918979); note: nearly all actives have a fitted effect of over 35% in size; note: potency is the fitted concentration of half-maximal effect
- experimental parameters: OCI-MY1 myeloma viability, CellTiter-Glo ATP, 48 h; series mostly up to 45.8 µM
- From the text: PI: Beverly A. Mock Ph.D. Laboratory of Cancer Biology and Genetics, Center for Cancer Research, National Cancer Institute, National Institute of Health, Bethesda, Maryland […] 5; Detector; 425V; Luminescence; Viewlux PerkinElmer. […] 1. […] Briefly, the corresponding myeloma cell lines were screened in 1,536-well plates with 500 cells, 5-uL per well for inhibition of cell viability (assessed by measuring ATP levels with CellTiterGlo). […]
Results filed as inconclusive are left out. Calls of active or inactive are those of the source. Calls come from the whole dose curve; as a rule, active = well fitted cell-killing curve with a large enough effect; inconclusive = small, poorly fitted or top-dose-only effect, or effect the other way; inactive = no such curve, though single readings can be large or run the other way.
property: Potency

Example results:
Dear colleague, I am looking for the recorded Potency of the following compound: `C=CC(=O)N1CCc2ccc(-n3c(=O)ccc4cnc5ccc(-c6cnn(C)c6)cc5c43)cc21`
1.87 µM (active)

Cool, now `CC(=O)N[C@@H]1[C@H](O[C@@H]2c3ccc(c(Cl)c3)Oc3cc4cc(c3O[C@H]3O[C@H](CO)[C@@H](O)[C@H](O)[C@H]3NC(=O)CCCCCCCC(C)C)Oc3ccc(cc3Cl)C[C@H]3NC(=O)[C@H](N)c5ccc(O)c(c5)Oc5cc(O)cc(c5)[C@H](NC3=O)C(=O)N[C@H]4C(=O)N[C@H]3C(=O)N[C@@H]2C(=O)N[C@@H](C(=O)O)c2cc(O)cc(O[C@H]4O[C@H](CO)[C@@H](O)[C@H](O)[C@H]4O)c2-c2cc3ccc2O)O[C@H](CO)[C@@H](O)[C@@H]1O`
inactive

Cool, now `C=CC(=O)Nc1ccc2ncnc(Nc3ccc(OCc4cccc(F)c4)c(Cl)c3)c2c1`
14.8 µM (active)

Cool, now `NC[C@H]1O[C@H](O[C@H]2[C@@H](O)[C@@H](O[C@H]3O[C@H](CO)[C@@H](O)[C@H](N)[C@@H]3O)[C@H](N)C[C@@H]2N)[C@H](N)C[C@H]1O`
inactive

Cool, now `N=c1ccn2c(n1)O[C@H]1[C@@H](O)[C@@H](CO)O[C@H]12`
inactive

---
Dear colleague, I am looking for the recorded Potency of the following compound: `O=C(C=CC=Cc1ccc2c(c1)OCO2)N1CCCCC1`
inactive

Cool, now `COc1ccnc2[nH]cc(C(=O)C(=O)N3CCN(C(=O)c4ccccc4)C[C@@H]3C)c12`
inactive

Cool, now `COc1cc(OC)cc(-c2ccc3ncc4ccc(=O)n(-c5ccc(N6CCNCC6)c(C(F)(F)F)c5)c4c3c2)c1`
14.8 µM (active)

Cool, now `Cn1cnc2c(F)c(Nc3ccc(Br)cc3F)c(C(=O)NOCCO)cc21`
inactive

Cool, now OCC(O)C(O)C(O)CO (stereo not drawn)
inactive

Cool, now `Cc1ccc2nc(NCCN)c3ncc(C)n3c2c1`
14.8 µM (active)

Cool, now `O=C(c1ccc(F)cc1)N1CCC[C@H](c2nc(-c3ccc(F)cc3)no2)C1`
inactive

Cool, now `CCC[C@H]1C[C@H](C(=O)N[C@@H]([C@@H]2O[C@@H](SC)[C@@H](O)[C@@H](O)[C@@H]2O)[C@H](C)Cl)N(C)C1`
inactive

====

- assay notes: Quantitative High-Throughput drug screen in 47 multiple myeloma cell lines against the NCATS MIPE library collection: KMS28PE_JCRB cell viability assay (AID 1918983); note: nearly all actives have a fitted effect of over 35% in size
- experimental parameters: KMS28PE multiple myeloma viability, CellTiter-Glo ATP, 48 h; series mostly up to 45.8 µM
Results filed as inconclusive are left out. Activity calls are given as the source filed them. The call rests on the fitted dose curve; in most records, active means well fitted cell-killing curve with a large enough effect; inconclusive means small, poorly fitted or top-dose-only effect, or effect the other way; inactive means no such curve, though single readings can be large or run the other way.
Result category, one only: yes = active, no = inactive

Solved cases below.
Please let me know the test result on file for `CCN(CC)CCNC(=O)c1c(C)[nH]c(C=C2C(=O)Nc3ccc(F)cc32)c1C` .
yes

Cool, now `NC(=O)c1cccc(-c2cccc(OC(=O)NC3CCCCC3)c2)c1`
no

Cool, now `CN[C@H]1[C@@H](O)[C@@H]2O[C@@H]3O[C@H](C)CC(=O)[C@]3(O)O[C@@H]2[C@@H](NC)[C@H]1O`
yes

---
Please let me know the test result on file for `c1cc(CN2CCCNCCNCCCNCC2)ccc1CN1CCCNCCNCCCNCC1` .
no

Cool, now `CCc1c(O)cc(O)c(C(=O)c2ccc(OCCN3CCOCC3)c(OC)c2)c1CC(=O)N(CCOC)CCOC`
yes

Cool, now `CC(=O)N[C@@H]1[C@H](O[C@@H]2c3ccc(c(Cl)c3)Oc3cc4cc(c3O[C@H]3O[C@H](CO)[C@@H](O)[C@H](O)[C@H]3NC(=O)CCCCCCCC(C)C)Oc3ccc(cc3Cl)C[C@H]3NC(=O)[C@H](N)c5ccc(O)c(c5)Oc5cc(O)cc(c5)[C@H](NC3=O)C(=O)N[C@H]4C(=O)N[C@H]3C(=O)N[C@@H]2C(=O)N[C@@H](C(=O)O)c2cc(O)cc(O[C@H]4O[C@H](CO)[C@@H](O)[C@H](O)[C@H]4O)c2-c2cc3ccc2O)O[C@H](CO)[C@@H](O)[C@@H]1O`
no

Cool, now `CC(=O)ON=C1C(c2c(O)[nH]c3cc(Br)ccc23)=Nc2ccccc21`
yes

Cool, now `C[C@H](NCc1ccc(OCc2cccc(F)c2)cc1)C(N)=O`
yes

Cool, now `Cn1cc(-c2cnn3c(N)c(Br)c([C@H]4CCCNC4)nc23)cn1`
yes

Cool, now Nc1cccc2c1C(=O)N(C1CCC(=O)NC1=O)C2=O (stereo unspecified)
yes

Cool, now `C=CC1=C(C(=O)O)N2C(=O)[C@@H](NC(=O)C(=NO)c3csc(N)n3)[C@H]2SC1`
no

Reference source: PubChem BioAssay (NCATS)
